Biological target: T1, human CD112R on antigen-specific CD8+ T cells (human, UniProt Q6DKI7 1-326)
T1 sequence (looked up): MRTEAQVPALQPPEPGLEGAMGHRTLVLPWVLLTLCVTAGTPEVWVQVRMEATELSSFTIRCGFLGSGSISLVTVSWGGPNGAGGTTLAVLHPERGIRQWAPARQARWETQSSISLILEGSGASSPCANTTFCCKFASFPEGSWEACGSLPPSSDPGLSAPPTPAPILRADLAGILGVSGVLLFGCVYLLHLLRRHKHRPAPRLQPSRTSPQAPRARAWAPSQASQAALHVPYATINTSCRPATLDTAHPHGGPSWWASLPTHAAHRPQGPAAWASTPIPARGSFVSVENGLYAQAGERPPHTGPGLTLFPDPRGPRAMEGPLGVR
Assay: cell-based or functional assay
OBSERVED_PROPERTY: IFN-γ(pg/ml) at 5µg/ml antibody (pg/mL)
Answer format: numeric, pg/mL implied, no suffix.

Any idea what IFN-γ(pg/ml) at 5µg/ml antibody was measured for anti-CD112R antibody CHA.7.518 (antibody, V domains shown, synthesised according to WO/2016/134333; also called Tab-1; Tab 1) VH: QVQLVQSGAEVKKPGASVKVSCKASGYTFTDYNINWVRQAPGQGLEWMGYIYPYIGGSGYAQKFQGRVTMTRDTSTSTVYMELSSLRSEDTAVYYCAREDKTARNAMDYWGQGTLVTVSS VL: DIQMTQSPSSLSASVGDRVTITCRVSENIYSNLAWYQQKPGKAPKLLIYEATNLAEGVPSRFSGSGSGTDFTLTISSLQPEDFATYYCQHFWGTPYTFGQGTKLEIKR ?
718
